The following molecules are shown together with reported EC50 values.
Test system: KB
assay notes: Effective dose required for inhibitory activity against KB-VIN human tumor cell line.
Format: functional
conditions: read-out: ED50 (the source's name)
Your answer is read as µg/mL, so omit the unit and give the number.

Answer with the recorded EC50 for the molecule listed here: CCCCCC[C@H](O)CCC[C@H](O)[C@H]1CC[C@H]([C@H]2CC[C@H]([C@H](O)CCCCCCCCCCCCC3=C[C@H](C)OC3=O)O2)O1 [SQUAMOCIN]
12

Answer with the recorded EC50 for the molecule listed here: CCCCCCCCCCCC[C@@H](O)[C@H]1CC[C@H]([C@H](O)CCCCCC(O)CCCC[C@@H](O)CC2=C[C@H](C)OC2=O)O1 (stereo not given in full)
17

====

The following molecules are shown together with reported EC50 values.
Test system: KB
assay notes: Effective dose required for inhibitory activity against KB-VIN human tumor cell line.
Assay type: functional
conditions: read-out: ED50 (the source's name)

Consider the following illustrative entries.
molecule	EC50
CCCCCC(O)C(O)CCCCCC[C@H](O)[C@@H]1CC[C@H](CCCCCCCCCC[C@H](O)CC2=C[C@H](C)OC2=O)O1 (stereo partly drawn) [MURICIN B]	> 20 µg/mL
CCCCCCCCCCCC[C@@H](O)[C@H]1CC[C@H]([C@H](O)CCCCC(=O)CCCCCCCC2=C[C@H](C)OC2=O)O1	> 20 µg/mL
CCCCCCCCCCCC[C@@H](O)[C@H]1CC[C@H]([C@H](O)CCCCCCCCCCCCC2=C[C@H](C)OC2=O)O1 [REL-SOLAMIN]	> 20 µg/mL
CCCCCCCCCCCCCC[C@@H](O)[C@H]1CC[C@H]([C@H](O)CCC(O)CCCCCCCC2=C[C@H](C)OC2=O)O1 (stereo partly drawn)	> 20 µg/mL
CCCCC/C=C\CCC(O)C(O)CCCC[C@@H](O)[C@@H]1CC[C@@H](CCCCCCCCCCCCC2=C[C@H](C)OC2=O)O1 (stereo partly drawn)	> 20 µg/mL

State, for KB, measured EC50 of the molecule listed here: CCCCCCCC/C=C\CC[C@H](O)[C@@H]1CC[C@@H]([C@H](O)CCCCC(O)CCCCCC(O)CC2=C[C@H](C)OC2=O)O1 (stereo partly drawn)
17.5 µg/mL

State, for KB, measured EC50 of the molecule listed here: CCCCCCCCCCCC[C@H](O)[C@@H]1CC[C@@H]([C@@H](O)CCCCC(=O)CCCCCC2CC(CC(C)=O)C(=O)O2)O1 (stereo partly drawn) [ISOANNONACINONE]
> 20 µg/mL

====

System: HCT-8
assay notes: Effective dose required for inhibitory activity against HCT-8 human tumor cell line.
Format: functional
conditions: read-out: ED50 (the source's name)
quantity measured: EC50

Consider the following illustrative entries.
compound	EC50
CCCCCCCCCCCCCC[C@@H](O)[C@H]1CC[C@H]([C@H](O)CCCCC(O)CCCCCC(O)CC2=C[C@H](C)OC2=O)O1 (some centres undefined)	12.7 µg/mL
CCCCCCCCCCCC[C@@H](O)[C@H]1CC[C@H]([C@H](O)CCCCC(=O)CCCCC[C@@H](O)CC2=C[C@H](C)OC2=O)O1	> 20 µg/mL
CCCCC(O)C(O)C/C=C\CC[C@H](O)[C@@H]1CC[C@@H](CCCCCCCCCCCC[C@H](O)CC2=C[C@H](C)OC2=O)O1 (some centres undefined)	> 20 µg/mL

Answer with the recorded EC50 for the compound listed here: CCCCCCCCCCCCC(O)C(O)CCC(O)[C@H]1CC[C@H](CCCCCCC[C@@H](O)CC2=C[C@H](C)OC2=O)O1 (some centres undefined)
> 20 µg/mL

Every entry's value here was drawn from ChEMBL document CHEMBL1145845.
